System: Staphylococcus aureus
Assay: Antibacterial activity against methicillin-resistant Staphylococcus aureus
Type: functional
// reported MIC per item
Write the value in µg/mL as a bare number.

Examples with their reported MIC follow.
Cn1cc(NC(=O)c2ccc(C(=O)c3ccc(C(=O)Nc4cc(C(=O)NCCN5CCCC5)n(C)c4)cc3)cc2)cc1C(=O)NCCN1CCCC1
1
CN(C)CCCNC(=O)c1cc(NC(=O)c2ccc(C(=O)c3ccc(C(=O)Nc4cc(C(=O)NCCCN(C)C)n(C)c4)cc3)cc2)cn1C
8

Problem: What MIC value was documented for this molecule, `Cn1cc(NC(=O)c2ccc(C(=O)c3ccc(C(=O)Nc4cn(C)c(C(=O)NCCN5CCCCC5)n4)cc3)cc2)nc1C(=O)NCCN1CCCCC1` ?
Result: 4

Problem: Lookup `Cn1cc(NC(=O)c2ccc(C(=O)c3ccc(C(=O)Nc4cc(C(=O)NCCN5CCOCC5)n(C)c4)cc3)cc2)cc1C(=O)NCCN1CCOCC1`
Result: 4

Problem: Lookup `Cn1cc(NC(=O)c2ccc(C(=O)c3ccc(C(=O)Nc4cc(C(=O)NCCN5CCCCC5)n(C)c4)cc3)cc2)cc1C(=O)NCCN1CCCCC1`
Result: 0.5

Problem: Lookup `Cn1cc(NC(=O)c2ccc(C(=O)c3ccc(C(=O)Nc4cn(C)c(C(=O)NCCN5CCCC5)n4)cc3)cc2)nc1C(=O)NCCN1CCCC1`
Result: 32

###

// reported log10 of Ka per item
Tested on: Nucleic Acid
Test: Binding affinity to DNA AT hairpin (5'-CGAAAAACAAAAAGTTTTTCG- 3') oligonucleotide by ethidium bromide displacement assay
Type: nucleic-acid assay
Reminder: these figures are log10 of reported Ka, in ×10⁶ /M before transformation.

Cn1cc(NC(=O)c2ccc(C(=O)c3ccc(C(=O)Nc4cc(C(=O)NCCN5CCCC5)n(C)c4)cc3)cc2)cc1C(=O)NCCN1CCCC1
-0.17
Cn1cc(NC(=O)c2ccc(C(O)c3ccc(C(=O)Nc4cc(C(=O)NCCN5CCCCC5)n(C)c4)cc3)cc2)cc1C(=O)NCCN1CCCCC1
-2.01
Cn1cc(NC(=O)CCCCCCCCCCCC(=O)Nc2cc(C(=O)NCCN3CCCCC3)n(C)c2)cc1C(=O)NCCN1CCCCC1
-1.90

Problem: What log10 of Ka value was documented for this molecule, `CN(C)c1ccc(NC(=O)c2cc(NC(=O)c3ccc(C(=O)c4ccc(C(=O)Nc5cc(C(=O)Nc6ccc(N(C)C)cc6)n(C)c5)cc4)cc3)cn2C)cc1` ?
Result: -0.41

Problem: Lookup `CN1CCN(CCCNC(=O)c2cc(NC(=O)c3ccc(C(=O)c4ccc(C(=O)Nc5cc(C(=O)NCCCN6CCN(C)CC6)n(C)c5)cc4)cc3)cn2C)CC1`
Result: -0.97

Problem: Lookup `Cn1cc(NC(=O)c2ccc(C(O)c3ccc(C(=O)Nc4cc(C(=O)NCCN5CCCC5)n(C)c4)cc3)cc2)cc1C(=O)NCCN1CCCC1`
Result: -0.76

Problem: Lookup `CN(C)CCCNC(=O)c1cc(NC(=O)c2ccc(C(=O)c3ccc(C(=O)Nc4cc(C(=O)NCCCN(C)C)n(C)c4)cc3)cc2)cn1C`
Result: 0.00

Problem: Lookup `Cn1cc(NC(=O)c2ccc(C(=O)c3ccccc3)cc2)cc1C(=O)NCCN1CCCCC1`
Result: -0.64

Problem: Lookup `Cn1cc(NC(=O)CCCCCCCCCCCC(=O)Nc2cc(C(=O)NCCN3CCCC3)n(C)c2)cc1C(=O)NCCN1CCCC1`
Result: -1.68

Problem: Lookup `Cn1cc(NC(=O)c2ccc(Cc3ccc(C(=O)Nc4cc(C(=O)NCCN5CCCCC5)n(C)c4)cc3)cc2)cc1C(=O)NCCN1CCCCC1`
Result: -1.62

Problem: Lookup `Cn1cc(NC(=O)c2ccccc2)cc1C(=O)NCCN1CCCC1`
Result: -0.96

Problem: Lookup `Cn1cc(NC(=O)c2ccccc2)cc1C(=O)NCCN1CCCCC1`
Result: -0.76

Problem: Lookup `Cn1cc(NC(=O)c2ccc(C(=O)c3ccc(C(=O)Nc4cc(C(=O)NCCN5CCCCC5)n(C)c4)cc3)cc2)cc1C(=O)NCCN1CCCCC1`
Result: -0.03

Problem: Lookup `Cn1cc(NC(=O)c2ccc(Cc3ccc(C(=O)Nc4cc(C(=O)NCCN5CCCC5)n(C)c4)cc3)cc2)cc1C(=O)NCCN1CCCC1`
Result: -0.81

Problem: Lookup `Cn1cc(NC(=O)c2ccc(C(=O)c3ccccc3)cc2)cc1C(=O)NCCN1CCCC1`
Result: -0.97
